# Target Or System: MCH receptor (Homo sapiens, UniProt Q99705)
# Sequence (Q99705 whole entry): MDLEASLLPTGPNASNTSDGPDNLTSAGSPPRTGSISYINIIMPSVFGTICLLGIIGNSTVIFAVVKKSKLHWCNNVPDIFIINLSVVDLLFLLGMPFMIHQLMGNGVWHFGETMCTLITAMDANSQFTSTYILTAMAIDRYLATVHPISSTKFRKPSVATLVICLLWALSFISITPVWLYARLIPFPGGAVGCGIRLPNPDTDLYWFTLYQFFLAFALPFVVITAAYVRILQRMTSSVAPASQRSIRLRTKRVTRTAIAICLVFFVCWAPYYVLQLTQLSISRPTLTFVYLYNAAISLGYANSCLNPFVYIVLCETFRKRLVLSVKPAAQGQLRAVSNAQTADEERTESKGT

{"Compound": "N#Cc1cccc(-c2ccc(C3(OCC(=O)Nc4cc(Cl)cc(Cl)c4)CCN(C4CCOCC4)CC3)cc2)c1", "Ki [nM]": 9}
{"Compound": "N#Cc1cccc(-c2ccc(C3(CCC(=O)Nc4cc(Cl)cc(Cl)c4)CCN(C4CCCC4)CC3)cc2)c1", "Ki [nM]": 35.5}
{"Compound": "CC(=O)N1CCC(c2ccc(-c3cccc(C#N)c3)cc2)(N(C)CC(=O)Nc2ccc(F)c(Cl)c2)CC1", "Ki [nM]": 25}
{"Compound": "N#Cc1cccc(-c2ccc(C3(OCC(=O)Nc4cc(Cl)cc(Cl)c4)CCN(Cc4cccs4)CC3)cc2)c1", "Ki [nM]": 26}
{"Compound": "CCC(C)CN1CCC(OCC(=O)Nc2cc(Cl)cc(Cl)c2)(c2ccc(-c3cccc(C#N)c3)cc2)CC1 (centres unmarked)", "Ki [nM]": 21}
{"Compound": "N#Cc1cccc(-c2ccc(C3(OCC(=O)Nc4ccc(F)c(Cl)c4)CCN(CC4CC4)CC3)cc2)c1", "Ki [nM]": 2}
{"Compound": "N#Cc1cccc(-c2ccc(C3(OCC(=O)Nc4cc(Cl)cc(Cl)c4)CCN(Cc4ccc(O)cc4)CC3)cc2)c1", "Ki [nM]": 20}
{"Compound": "N#Cc1cccc(-c2ccc(C3(CCC(=O)Nc4ccc(F)c(F)c4)CCN(CC4CC4)CC3)cc2)c1", "Ki [nM]": 8}

====

Let's go through some recorded Ki values for MCH receptor (Homo sapiens, UniProt Q99705) together.
Property: Ki (nM)

{"Compound": "N#Cc1cccc(-c2ccc(C3(OCC(=O)Nc4cc(Cl)cc(Cl)c4)CCN(C4CCCC(C(F)(F)F)C4)CC3)cc2)c1 (stereo not shown)", "Property": "Ki", "Recorded Measurement": 86}
{"Compound": "CC(C)CCN1CCC(OCC(=O)Nc2cc(Cl)cc(Cl)c2)(c2ccc(-c3cccc(C#N)c3)cc2)CC1", "Property": "Ki", "Recorded Measurement": 30}
{"Compound": "N#Cc1cccc(-c2ccc(C3(OCC(=O)Nc4ccc(Cl)c(C(F)(F)F)c4)CCN(CCO)CC3)cc2)c1", "Property": "Ki", "Recorded Measurement": 48}
{"Compound": "CC(C)(C)OC(=O)N1CCC(CCC(=O)Nc2ccc(F)c(F)c2)(c2ccc(-c3cccc(C#N)c3)cc2)CC1", "Property": "Ki", "Recorded Measurement": 51}

====

Parameter: pKi. Scope: all listed entries.
# Target Or System: MCH receptor (Homo sapiens, UniProt Q99705)
pKi: −log10 of the molar value.

{"Compound": "N#Cc1cccc(-c2ccc(C3(OCC(=O)Nc4cc(Cl)cc(Cl)c4)CCN(C4CCC(C(F)(F)F)CC4)CC3)cc2)c1 (stereo not drawn)", "pKi": 7.31}
{"Compound": "N#Cc1cccc(-c2ccc(C3(CCC(=O)Nc4cc(F)cc(C(F)(F)F)c4)CCN(CC4CC4)CC3)cc2)c1", "pKi": 7.31}
{"Compound": "N#Cc1cccc(-c2ccc(C3(OCC(=O)Nc4cc(Cl)cc(Cl)c4)CCN(CCCc4ccccc4)CC3)cc2)c1", "pKi": 7.30}

Values compiled from patent US6664273B2.
